These data points were gathered from PubChem BioAssay (NCI).

# Tested on: MOLT-4 leukemia
# experimental.details: NCI tumour cell line growth inhibition, 48 h
Please provide measured TGI for the entries that follow.

Return reported TGI; argument: Nn1c(CCCCCCCCc2nnc(COc3ccccc3)n2N)nnc1COc1ccccc1
> 100 µM

Let us now turn to Nc1nc2c(nnn2C2OC(CO)C(O)C2O)c(=O)[nH]1 (stereo not drawn)
> 100 µM

// same read-out, input: COC(=O)[C@@]1(Cc2ccc(O)cc2)C[C@@H]2Cc3ccccc3N2N1
> 100 µM

---

# System: SF-295 CNS
# experimental.details: NCI tumour cell line growth inhibition, 48 h
What TGI was measured for each of the following?
# unit: µM | format: bare number

Reported TGI for SF-295 CNS, given CCOC(=O)c1ccc2c(c1)nc(/C=C/c1ccc(Cl)cc1)n2-c1cc(C(C)(C)C)[nH]n1 ?
8.82

c1ccc(Nc2nc(-c3ccccn3)cs2)nc1 ?
6.61
